Every entry's value here was drawn from PubChem BioAssay.

# inhibition per record follows
Tested target: L-lactate dehydrogenase (Plasmodium falciparum (isolate CDC / Honduras))
Assay details: PfLDH activity inhibition – cell lysate, 3D7 strain, counter-screen for P. falciparum growth inhibition project (AID 2304);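 also: 0% = vehicle and 100% = reference inhibitor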
Reported conditions: P. falciparum 3D7 crude extract, LDH APAD/NBT absorbance; at 2 µM; stronger effect = higher value
Provide only the numeric value, understood in %.

Compound: CN(C)CCCOc1ccc(-c2nc(-c3ccc4c(c3)CCC4=NO)c(-c3ccncc3)[nH]2)cc1
Unit: %
inhibition: -3
//
Compound: Oc1cccc(-c2nc(-c3ccccc3)c(-c3ccc4oc5ccc(-c6[nH]c(-c7cccc(O)c7)nc6-c6ccccc6)cc5c4c3)[nH]2)c1
Unit: %
inhibition: 4
//
Compound: CC(=NNC(N)=O)C1=C(O)C(c2ccccc2)N(C2CCCCC2)C1=O (stereo unspecified)
Unit: %
inhibition: 0
//
Compound: CCOc1cc(C=NNc2nc(C)cc(-n3nc(C)cc3C)n2)ccc1O
Unit: %
inhibition: 2
//
Compound: NC(N)=NN=Cc1c[nH]c2ccc(-c3ccccc3)cc12
Unit: %
inhibition: -2

We next turn to a different compound, shown below.
Fill in the blank: the reported inhibition of `COc1ccc2nc(C)cc(NN=Cc3cc(C)ccc3O)c2c1` is ____.
-2

====

Assay details: compounds altering viability of human ES cells (AID 493140);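 also: cells exposed to compounds for four days before counting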
Reported conditions: human embryonic stem cell survival screen; stronger effect = higher value
// Not met strictly below 10 in survival; Met otherwise

Molecule: C[C@H](CCC(=O)NCC(=O)O)[C@H]1CC[C@H]2[C@@H]3[C@H](O)C[C@@H]4C[C@H](O)CC[C@]4(C)[C@H]3C[C@H](O)[C@]12C
Label value: Met
--
Molecule: NC(N)=NCCNS(=O)(=O)c1cccc2cnccc12
Label value: Met
--
Molecule: CCCCCCCCCCCCCCCCCCOC[C@H](COP(=O)([O-])OCC[N+](C)(C)C)OC(C)=O
Label value: Met
--
Molecule: C=CCOc1ccccc1OCC(O)CNC(C)C (configuration not stated)
Label value: Not met
--
Molecule: O=C1O[C@H](C(O)CO)[C@H](O)C1O (some centres not stated)
Label value: Not met
--
Molecule: Cn1nnnc1SCC1=C(C(=O)O)N2C(=O)[C@@H](NC(=O)[C@H](O)c3ccccc3)[C@H]2SC1
Label value: Not met

Field: next molecule
Reported survival at or above 10? `COc1ccc2nccc(C(=O)O)c2c1`
Met

====

Assay details: viability loss with induced miR-34 in A549 – imaging, A549 dox-inducible miR-34, nuclei and caspase counts, primary screen (AID 1347080)
Reported conditions: A549 miR-34 inducible, Hoechst nuclei count, 48 h; stronger effect = lower value; cell number ratio, induced over uninduced
# fold change per record follows
The reply should be a number, written without any unit.

Previously resolved entries follow.
Compound: O=C(COc1ccc(C(=O)c2ccccc2)cc1)NC1CCN(Cc2ccccc2)CC1
fold change: 0.922
//
Compound: CC1(C)CCC[C@@]2(C)[C@H]3CC(=O)O[C@]3(C)CC[C@@H]12
fold change: 0.913

We next turn to a different compound, shown below.
Fill in the blank: the reported fold change of CCCCCCCCCCCCCCCC(=O)C1=C(O)C(CO)OC1=O (stereo not drawn) is ____.
0.877

====

Assay details: viability loss with induced miR-34 in A549 – imaging, A549 dox-inducible miR-34, nuclei and caspase counts, primary screen (AID 1347080)
Reported conditions: A549 miR-34 inducible, Hoechst nuclei count, 48 h; stronger effect = lower value; cell number ratio, induced over uninduced
Endpoint name: fold change
The reply should be a number, written without any unit.

Compound: CCN(Cc1nccn1C)C(=O)c1cc(-c2cnc(C)nc2)nc2cc(F)ccc12
fold change: 0.881
//
Compound: CC(C)(CO)C(O)C(=O)NCCC(=O)O (centres undefined)
fold change: 0.839
//
Compound: OC1(CNc2ncnc3nc[nH]c23)C2CC3CC(C2)CC1C3 (centres undefined)
fold change: 0.887
//
Compound: Cc1cc(C)c(Nc2ccnc(Nc3ccc(C#N)cc3)n2)c(C)c1
fold change: 0.923
//
Compound: CCNC(=O)Nc1ccc(-c2nc3c(c(N4CCOCC4C)n2)CCN(C2COC2)C3)cc1 (centres undefined)
fold change: 0.905
//
Compound: CC1C[C@H]2[C@@H]3CCC4=CC(=O)C=C[C@]4(C)[C@]3(Cl)C(O)C[C@]2(C)[C@]1(OC(=O)c1ccco1)C(=O)CCl (some centres undefined)
fold change: 0.916
//
Compound: COc1ccccc1-c1ccc(C(=O)O)o1
fold change: 0.892
//
Compound: O=c1[nH]c(=O)n(C2CC(O)C(CO)O2)cc1C(F)(F)F (centres undefined)
fold change: 1.15
//
Compound: CCOC(=O)c1c(C)n[nH]c1C
fold change: 0.871
//
Compound: Brc1cc2c(cc1[C@H]1Nc3ccccc3[C@H]3C=CC[C@H]31)OCO2
fold change: 1.18

Fill in the blank: the reported fold change of `COc1ccc(CC(N)=O)cc1` is ____.
0.918

Now consider `C1=CCOCc2cc(ccc2OCCN2CCCC2)Nc2nccc(n2)-c2cccc(c2)COC1` .
0.848

====

# viability per record follows
Assay details: drug combination growth inhibition, ovarian cancer – cell-based, oncology-focused library, rucaparib conditional, profiling panel (AID 1508598)
Reported conditions: patient-derived ovarian cancer cells, CellTiter-Glo viability, 144 h; at 1.25 µM; OCI-P5x cells; with rucaparib 20 µM; stronger effect = lower value; 100% = cells with rucaparib alone
Provide only the numeric value, understood in %.

Previously resolved entries follow.
Structure: CC(C)C[C@H](NP(=O)(O)O[C@@H]1O[C@@H](C)[C@H](O)[C@@H](O)[C@H]1O)C(=O)N[C@@H](Cc1c[nH]c2ccccc12)C(=O)O
Unit: %
viability: 94.3
--
Structure: C[C@]12C=CC(=O)C=C1CC[C@@H]1[C@H]2C(=O)C[C@@]2(C)[C@H]1CC[C@@]2(O)C(=O)CO
Unit: %
viability: 85.8
--
Structure: Cc1cc([N+](=O)[O-])ccc1NS(=O)(=O)c1cc(Cl)ccc1Cl
Unit: %
viability: 96.3
--
Structure: COc1ccc(C2=N[C@@H](c3ccc(Cl)cc3)[C@H](c3ccc(Cl)cc3)N2C(=O)N2CCNC(=O)C2)c(OC(C)C)c1
Unit: %
viability: 97.7
--
Structure: CC(=O)O[C@@]1(C(C)=O)CC[C@H]2[C@@H]3C=C(C)C4=CC(=O)CC[C@]4(C)[C@@H]3CC[C@@]21C
Unit: %
viability: 89.9
--
Structure: Cc1cc(NC(=O)c2cccc(NC(=O)/C=C/CN(C)C)c2)ccc1Nc1nccc(-c2cccnc2)n1
Unit: %
viability: 103

We next turn to a different compound, shown below.
Fill in the blank: the reported viability of `COc1cccc(-c2cc(F)ccc2[C@H]2Cc3nc(N)nc(C)c3C(=O)N2)n1` is ____.
5.14

====

Assay details: MELAS cybrid and Rieske KO viability enhancers – cell-based, MELAS cybrids, Rieske KO mouse fibroblasts, CellTiter-Glo, primary screen (AID 1508586);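 also: z relative to plate mean and SD of compound and empty wells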
Reported conditions: Rieske KO mouse fibroblast survival, low glucose, CellTiter-Glo 72 h
Endpoint name: z-score
The reply should be a number, written without any unit.

Fill in the blank: the reported z-score of COc1ccc(CCc2nc3cc(-c4c(C)noc4C)ccc3n2CC(C)N2CCOCC2)cc1Cl (centres undefined) is ____.
-1.46

Now consider CC(CCC(=O)O)[C@H]1CC[C@H]2[C@@H]3C(O)C[C@@H]4CC(O)CC[C@]4(C)[C@@H]3CC[C@]12C (some centres undefined) .
0.756

Now consider `COc1ccccc1C(=O)N1CCN2C(=O)[C@H](CCCCN)NC(=O)[C@H]2C1` .
-0.574

Now consider `Cc1cc(C)c(Nc2ccnc(Nc3ccc(C#N)cc3)n2)c(C)c1` .
0.105

Now consider `COC(=O)Nc1nc2ccc(Sc3ccc(NC(=O)Nc4cc(C(F)(F)F)ccc4F)cc3)cc2[nH]1` .
-0.32

Now consider `O=C(Cc1noc2ccccc12)NCCOc1cccnc1` .
-0.425

Now consider `COc1c(C)c(C(=O)c2ccc(N)c(C(=O)O)c2)n2ccccc12` .
-2.17

Now consider `Cc1csc(CNc2nccc(-c3cnn(-c4ccccc4)c3)n2)n1` .
0.283

Now consider C=CC[N@@+]12CC[C@]34c5ccccc5N5/C=C6\C7N(/C=C(\C53)[C@@H](C[C@@H]41)/C(=C/CO)C2)c1ccccc1[C@@]71CC[N@@+]2(CC=C)C/C(=C\CO)[C@@H]6C[C@@H]12 (some centres undefined) .
-0.352

====

Assay details: viability loss with induced miR-34 in A549 – imaging, A549 dox-inducible miR-34, nuclei and caspase counts, primary screen (AID 1347080)
Reported conditions: A549 miR-34 inducible, Hoechst nuclei count, 48 h; measured here: total cells with miR-34 induction; stronger effect = lower value
# cell count per record follows
The reply should be a number, written without any unit.

Previously resolved entries follow.
Compound: Cc1nc(CCNC(=O)Nc2nnc(-c3cccs3)s2)sc1C
Numeric value: 7610
//
Compound: O=C(O)Cc1c[nH]c2ccc(O)cc12
Numeric value: 9930
//
Compound: CC(C)n1cnc2c(NCc3ccccc3)nc(NCCO)nc21
Numeric value: 2020
//
Compound: COCC1=C(C(=O)OC(C)OC(=O)OC(C)C)N2C(=O)C(NC(=O)C(=NOC)c3csc(N)n3)C2SC1 (stereo unspecified)
Numeric value: 9860
//
Compound: COc1ccc(-c2cc3ncc(C)n3c(Nc3ncccc3C(N)=O)n2)cc1OC
Numeric value: 8700

We next turn to a different compound, shown below.
Fill in the blank: the reported cell count of COc1cc(C2Oc3ccc(C4Oc5cc(O)cc(O)c5C(=O)C4O)cc3OC2CO)ccc1O (stereo unspecified) is ____.
8070
